B1: LINE1-full (parent)
chain: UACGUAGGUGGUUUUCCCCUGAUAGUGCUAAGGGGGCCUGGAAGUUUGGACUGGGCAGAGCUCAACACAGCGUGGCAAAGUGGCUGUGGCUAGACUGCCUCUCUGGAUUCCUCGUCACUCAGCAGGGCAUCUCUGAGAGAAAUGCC

Variants of: B1
Assay: self-cleavage, relative activity (ratio to wild type); higher = more cleavage; in vitro, sequencing; the parent is a self-cleaving ribozyme
READOUT LABEL: self-cleavage

[
  {
    "MUTANT LABEL": "G105A U108C",
    "READOUT LABEL": "self-cleavage",
    "DATA VALUE": 1.56
  },
  {
    "MUTANT LABEL": "A2U U104A",
    "READOUT LABEL": "self-cleavage",
    "DATA VALUE": 0.26
  },
  {
    "MUTANT LABEL": "U15C A30U",
    "READOUT LABEL": "self-cleavage",
    "DATA VALUE": 0.5
  },
  {
    "MUTANT LABEL": "G44A A129U",
    "READOUT LABEL": "self-cleavage",
    "DATA VALUE": 1.43
  }
]

These data points were gathered from the RNAGym collection of RNA variant scans (doi:10.7554/elife.90254).
